target: Ab0223; experiment: BLI 1-pt +indinavir
Sequence (VH, as listed by the source limits assumed, form in doubt, chain 1 of 2): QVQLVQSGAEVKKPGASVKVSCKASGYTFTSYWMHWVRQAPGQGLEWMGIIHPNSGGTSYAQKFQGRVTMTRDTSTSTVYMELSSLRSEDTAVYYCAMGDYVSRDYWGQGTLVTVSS
Sequence (VL, as listed by the source limits assumed, form in doubt, chain 2 of 2): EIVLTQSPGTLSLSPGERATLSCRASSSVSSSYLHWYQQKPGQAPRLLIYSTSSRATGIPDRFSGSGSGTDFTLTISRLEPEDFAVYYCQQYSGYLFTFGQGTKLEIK
Readout kind: pKd
Remember, pKd is on a log scale: it is -log10 of the molar concentration.

// known answers, use as guide
# Binder, pKd
rows = [
    ("Ab0946 (antibody, V domains shown) VH: EVQLVESGGGLVQPGGSLRLSCAASGFDFSSYSIHWVRQAPGKGLEWVASISPYYGSTYYADSVKGRFTISADTSKNTAYLQMNSLRAEDTAVYYCARYYEWYKYDLYLGSLAFDYWGQGTLVTVSS VL: DIQMTQSPSSLSASVGDRVTITCRASQSVSSAVAWYQQKPGKAPKLLIYSASSLYSGVPSRFSGSRSGTDFTLTISSLQPEDFATYYCQQGGYSLITFGQGTKVEIK", 7.30),
    ("Ab0947 (antibody, V domains shown) VH: EVQLVESGGGLVQPGGSLRLSCAASGFDFSSYSIHWVRQAPGKGLEWVASISPYYGSTYYADSVKGRFTISADTSKNTAYLQMNSLRAEDTAVYYCARYYEWYKYDLYLGSLGFAYWGQGTLVTVSS VL: DIQMTQSPSSLSASVGDRVTITCRASQSVSSAVAWYQQKPGKAPKLLIYSASSLYSGVPSRFSGSRSGTDFTLTISSLQPEDFATYYCQQGGYSLITFGQGTKVEIK", 7.28),
]

Problem: Return reported pKd. Input binder: Ab0939 (antibody, V domains shown) VH: EVQLVESGGGLVQPGGSLRLSCAASGFDFSSYSIHWVRQAPGKGLEWVASISAYYGSTYYADSVKGRFTISADTSKNTAYLQMNSLRAEDTAVYYCARYYEWYKYDLYLGSLGFDYWGQGTLVTVSS VL: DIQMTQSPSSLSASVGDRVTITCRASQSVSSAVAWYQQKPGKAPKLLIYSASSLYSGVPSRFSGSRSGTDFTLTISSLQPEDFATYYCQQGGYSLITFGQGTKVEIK
Solution: 8.43
